Biological target: cdk2/cyclinA (Homo sapiens, UniProt P24941)
Test: Cyclin-Dependent Kinase Assay cdk2/cyclinA
Details: cdk2/A IC50
Metric name: IC50 (nM)

The examples below pair each entry with its known result.
Compound	Unit of measure	IC50
CCCCn1c(=O)ccc2cnc(Nc3ccc(C)c(C)c3)nc21	nM	1100
CCC(C)n1c(=O)ccc2cnc(Nc3ccc(Cl)c(C)c3)nc21 (stereo not shown)	nM	310

[a] COc1cc(Nc2ncc3ccc(=O)n(CC4CC4)c3n2)cc(OC)c1OC
[b] O=c1ccc2cnc(Nc3cc(Cl)c(O)c(Cl)c3)nc2n1CC1CC1
[c] CCC(C)n1c(=O)ccc2cnc(Nc3ccc(NC(=O)OC(C)(C)C)cc3)nc21 (stereo not shown)
Ask: Sort ascending by IC50. // format: requested-order list of labels
Result: b, c, a
(b: 102 nM, c: 265 nM, a: 1600 nM)

[P] O=c1ccc2cnc(Nc3ccc(Cl)c(C(F)(F)F)c3)nc2n1C1CCCC1
[Q] CC(C)n1c(=O)ccc2cnc(Nc3ccc4[nH]ccc4c3)nc21
[R] CCCCn1c(=O)ccc2cnc(Nc3ccc(Cl)c(C)c3)nc21
Ask: Sort ascending by IC50. // format: requested-order list of labels
Result: Q, R, P
(Q: 260 nM, R: 690 nM, P: 1340 nM)

[I] CCCn1c(=O)ccc2cnc(Nc3ccc(C#N)c(NC(C)=O)c3)nc21
[II] CCC(C)n1c(=O)ccc2cnc(Nc3ccc(OC)c(F)c3)nc21 (stereo not shown)
Ask: Form field 'greater IC50' accepts I or II ; which applies? Refer to your chosen entry by its label in the reply.
Result: I

[P] CCC(CC)n1c(=O)ccc2cnc(Nc3ccc(C)c(NS(C)(=O)=O)c3)nc21
[Q] O=c1[nH]c2ccc(Nc3ncc4ccc(=O)n(CC5CC5)c4n3)cc2[nH]1
Ask: Form field 'greater IC50' accepts P or Q ; which applies? Refer to your chosen entry by its label in the reply.
Result: P
